Listed next: entries and their corresponding MIC.
# Test system: Coxiella burnetii
# test_method_notes: Antimicrobial activity against compound-susceptible Coxiella burnetii isolate CP7 obtained from patient with acute Q fever infected in african green monkey Vero cells after 24 hrs by shell vial assay
# Assay type: functional
# particulars: isolate CP7, 24 h
Note to self: number, then unit, no commentary.

>  <molecule>
CC(=O)NC[C@H]1CN(c2ccc(N3CCOCC3)c(F)c2)C(=O)O1 [LINEZOLID]

>  <system>
Coxiella burnetii

>  <MIC>
2 µg/mL

$$$$

-- ask Could you tell me which MIC is on file for O=C(O)c1cn(C2CC2)c2cc(N3CCNCC3)c(F)cc2c1=O [CIPROFLOXACIN] ?
-- reply 4 µg/mL

-- ask Could you tell me which MIC is on file for N[C@@H]1[C@H]2CN(c3nc4c(cc3F)c(=O)c(C(=O)O)cn4-c3ccc(F)cc3F)C[C@@H]12 [TROVAFLOXACIN] ?
-- reply 1 µg/mL

From: ChEMBL document CHEMBL1649456
